Cited source: patent US20260167728A1

# system tested: T1, huCD3e-mFc (human, UniProt P07766 23-126)
# T1 construct: not shown: mFc, not described
# T1 sequence (P07766 23-126): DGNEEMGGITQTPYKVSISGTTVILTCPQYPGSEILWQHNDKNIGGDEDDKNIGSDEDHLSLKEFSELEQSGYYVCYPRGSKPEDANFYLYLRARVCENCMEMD
# assay details: Pool 3 screen, R2
metric: pKd
Give bare numbers, as −log10 of the molar value.

AC3801 (CD3.297) (scFv, V domains shown, Pool 3 format (remarks)) VH: EVQLVESGGGIVQPGGSLRLSCAASGFTFSTYAMNWVRQAPGKGLEWVGRIRTKRNNYATYYADSVKGRFTISRDDSKNTVYLQMNSLKTEDTAVYYCVRHENFGNSYVSWFAHWGQGTLVTVSS VL: ELVVTQEPSLTVSPGGTVTLTCRSSNGAVTSSNYANWVQQKPGQAPRGLIGGTNKRAPGTPARFSGSLGGGKAALTLSGVQPEDEAVYYCALWYPNLWVFGGGTKLTVL    7.67

Tell me its pKd given AC3799 (CD3.295) (scFv, V domains shown, Pool 3 format (remarks)) VH: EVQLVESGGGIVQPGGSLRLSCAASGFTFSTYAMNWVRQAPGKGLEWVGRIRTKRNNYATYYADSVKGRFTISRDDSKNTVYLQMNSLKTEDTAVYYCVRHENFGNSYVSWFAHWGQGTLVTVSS VL: ELVVTQEPSLTVSPGGTVTLTCRSSNGAVTSSNYANWVQQKPGQAPRGLIGGTNKRAPGTPARFSGSLNGGKAALTLSGVQPEDEAVYYCALWYPNLWVFGGGTKLTVL as the entry. 8.43
